TEST_TARGET: GST-Co-NF-kB (Capsaspora owczarzaki, UniProt F1ARL5 200-546)
Sequence: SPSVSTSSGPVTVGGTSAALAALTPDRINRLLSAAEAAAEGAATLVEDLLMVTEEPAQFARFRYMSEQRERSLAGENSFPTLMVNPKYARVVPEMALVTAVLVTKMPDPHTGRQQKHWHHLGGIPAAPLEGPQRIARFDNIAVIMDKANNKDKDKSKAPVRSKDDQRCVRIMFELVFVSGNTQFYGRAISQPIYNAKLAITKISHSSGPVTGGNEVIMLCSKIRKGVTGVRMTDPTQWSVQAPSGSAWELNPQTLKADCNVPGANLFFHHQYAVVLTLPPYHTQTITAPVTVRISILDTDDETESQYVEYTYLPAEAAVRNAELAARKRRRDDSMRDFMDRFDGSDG
ASSAY_NAME: protein-binding microarray (PBM); PBM: ~300 nM protein, 6 mM HEPES pH 7.8, 80 mM KCl, 0.5 mM EDTA, 0.5 mM EGTA, 6% glycerol, 35 ng/ul poly-dIdC, 1% milk, 1 h, room temperature; high values mean tight binding
PARTICULARS: dsDNA, one strand shown
Reported binding signal is given for each of the following sequences.
Kindly answer with a numeric value in z-score, unit omitted.

Reference set, count: 4
stdin: State its binding signal on GST-Co-NF-kB (Capsaspora owczarzaki, UniProt F1ARL5 200-546): CCGATTAACATCAGGGAATTCGATGATGTTAATCGGGTCTTGATTCGCTTGACGCTGCTG
stdout: 2.25

stdin: State its binding signal on GST-Co-NF-kB (Capsaspora owczarzaki, UniProt F1ARL5 200-546): CCGATTAACATCACTAGTTTCCCTGATGTTAATCGGGTCTTGATTCGCTTGACGCTGCTG
stdout: 4.16

stdin: State its binding signal on GST-Co-NF-kB (Capsaspora owczarzaki, UniProt F1ARL5 200-546): CCGATTAACATCAACAATTTCCCTGATGTTAATCGGGTCTTGATTCGCTTGACGCTGCTG
stdout: 4.63

stdin: State its binding signal on GST-Co-NF-kB (Capsaspora owczarzaki, UniProt F1ARL5 200-546): CCGATTAACATCAGGGGAGCACCTGATGTTAATCGGGTCTTGATTCGCTTGACGCTGCTG
stdout: 3.23

For the next question, use this sequence.
stdin: State its binding signal on GST-Co-NF-kB (Capsaspora owczarzaki, UniProt F1ARL5 200-546): CCGATTAACATCACATCTCCCCCTGATGTTAATCGGGTCTTGATTCGCTTGACGCTGCTG
stdout: 7.54

* * *

TEST_TARGET: GST-Aq-NF-kB (Amphimedon queenslandica, UniProt A9Y5G7 2-389)
Sequence: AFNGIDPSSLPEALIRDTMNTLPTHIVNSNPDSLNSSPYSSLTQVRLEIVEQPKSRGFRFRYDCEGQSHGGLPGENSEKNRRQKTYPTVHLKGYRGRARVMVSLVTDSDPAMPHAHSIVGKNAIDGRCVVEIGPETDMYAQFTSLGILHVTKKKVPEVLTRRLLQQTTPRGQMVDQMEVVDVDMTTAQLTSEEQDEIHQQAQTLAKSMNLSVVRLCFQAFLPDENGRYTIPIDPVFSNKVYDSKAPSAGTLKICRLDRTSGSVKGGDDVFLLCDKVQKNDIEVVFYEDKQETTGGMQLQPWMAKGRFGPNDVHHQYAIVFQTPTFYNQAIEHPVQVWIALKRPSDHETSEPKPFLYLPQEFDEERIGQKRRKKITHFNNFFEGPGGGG
ASSAY_NAME: protein-binding microarray (PBM); PBM: ~300 nM protein, 6 mM HEPES pH 7.8, 80 mM KCl, 0.5 mM EDTA, 0.5 mM EGTA, 6% glycerol, 35 ng/ul poly-dIdC, 1% milk, 1 h, room temperature; Ap Aiptasia and Nv Nematostella (sea anemones) / Co Capsaspora / Aq Amphimedon (sponge) / Dm Drosophila / Hu human; RHD is the Rel homology domain; high values mean tight binding
PARTICULARS: dsDNA, one strand shown
Decide using binding signal: a value greater than or equal to 5 z-score is True, a smaller one is False.

Illustrative cases are given below, each with its answer.
stdin: Could you tell me if the measured binding signal of CCGATTAACATCAGGGGGAGGAATGATGTTAATCGGGTCTTGATTCGCTTGACGCTGCTG reaches 5 z-score or more?
stdout: False

stdin: Could you tell me if the measured binding signal of CCGATTAACATCACAAAAAACCCTGATGTTAATCGGGTCTTGATTCGCTTGACGCTGCTG reaches 5 z-score or more?
stdout: True

stdin: Could you tell me if the measured binding signal of CCGATTAACATCACCCCTCCCCATGATGTTAATCGGGTCTTGATTCGCTTGACGCTGCTG reaches 5 z-score or more?
stdout: False

stdin: Could you tell me if the measured binding signal of CCGATTAACATCACGGGGGATTATGATGTTAATCGGGTCTTGATTCGCTTGACGCTGCTG reaches 5 z-score or more?
stdout: True

stdin: Could you tell me if the measured binding signal of CCGATTAACATCATGGTGGGAAATGATGTTAATCGGGTCTTGATTCGCTTGACGCTGCTG reaches 5 z-score or more?
stdout: False

New cases:
stdin: Could you tell me if the measured binding signal of CCGATTAACATCAGACCCCCCCCTGATGTTAATCGGGTCTTGATTCGCTTGACGCTGCTG reaches 5 z-score or more?
stdout: False

stdin: Could you tell me if the measured binding signal of CCGATTAACATCACGGGGCCCCCTGATGTTAATCGGGTCTTGATTCGCTTGACGCTGCTG reaches 5 z-score or more?
stdout: False

stdin: Could you tell me if the measured binding signal of CCGATTAACATCAAAGGAATTCCTGATGTTAATCGGGTCTTGATTCGCTTGACGCTGCTG reaches 5 z-score or more?
stdout: False

stdin: Could you tell me if the measured binding signal of CCGATTAACATCACGGAATTCCCTGATGTTAATCGGGTCTTGATTCGCTTGACGCTGCTG reaches 5 z-score or more?
stdout: True

stdin: Could you tell me if the measured binding signal of CCGATTAACATCAAAATTTACCGTGATGTTAATCGGGTCTTGATTCGCTTGACGCTGCTG reaches 5 z-score or more?
stdout: False

stdin: Could you tell me if the measured binding signal of CCGATTAACATCACCCGGGTAAATGATGTTAATCGGGTCTTGATTCGCTTGACGCTGCTG reaches 5 z-score or more?
stdout: False

stdin: Could you tell me if the measured binding signal of CCGATTAACATCACTAAATTCCCTGATGTTAATCGGGTCTTGATTCGCTTGACGCTGCTG reaches 5 z-score or more?
stdout: False

stdin: Could you tell me if the measured binding signal of CCGATTAACATCAAAAAACCACCTGATGTTAATCGGGTCTTGATTCGCTTGACGCTGCTG reaches 5 z-score or more?
stdout: True

stdin: Could you tell me if the measured binding signal of CCGATTAACATCAAGGATTGCCCTGATGTTAATCGGGTCTTGATTCGCTTGACGCTGCTG reaches 5 z-score or more?
stdout: False

stdin: Could you tell me if the measured binding signal of CCGATTAACATCAGTATGGGAAATGATGTTAATCGGGTCTTGATTCGCTTGACGCTGCTG reaches 5 z-score or more?
stdout: False

stdin: Could you tell me if the measured binding signal of CCGATTAACATCAGGGAATTACCTGATGTTAATCGGGTCTTGATTCGCTTGACGCTGCTG reaches 5 z-score or more?
stdout: True

stdin: Could you tell me if the measured binding signal of CCGATTAACATCACAAACGGGGCTGATGTTAATCGGGTCTTGATTCGCTTGACGCTGCTG reaches 5 z-score or more?
stdout: False

stdin: Could you tell me if the measured binding signal of CCGATTAACATCAGGAATCTCCATGATGTTAATCGGGTCTTGATTCGCTTGACGCTGCTG reaches 5 z-score or more?
stdout: False

stdin: Could you tell me if the measured binding signal of CCGATTAACATCAACGGATTCCCTGATGTTAATCGGGTCTTGATTCGCTTGACGCTGCTG reaches 5 z-score or more?
stdout: False

stdin: Could you tell me if the measured binding signal of CCGATTAACATCAGGAGTCTCCCTGATGTTAATCGGGTCTTGATTCGCTTGACGCTGCTG reaches 5 z-score or more?
stdout: True

stdin: Could you tell me if the measured binding signal of CCGATTAACATCACTATTTCCCCTGATGTTAATCGGGTCTTGATTCGCTTGACGCTGCTG reaches 5 z-score or more?
stdout: False

stdin: Could you tell me if the measured binding signal of CCGATTAACATCAGAATATCCCCTGATGTTAATCGGGTCTTGATTCGCTTGACGCTGCTG reaches 5 z-score or more?
stdout: True

stdin: Could you tell me if the measured binding signal of CCGATTAACATCAGGTAATCACCTGATGTTAATCGGGTCTTGATTCGCTTGACGCTGCTG reaches 5 z-score or more?
stdout: False

stdin: Could you tell me if the measured binding signal of CCGATTAACATCAAAATTTTCCTTGATGTTAATCGGGTCTTGATTCGCTTGACGCTGCTG reaches 5 z-score or more?
stdout: False

stdin: Could you tell me if the measured binding signal of CCGATTAACATCAGGAGTACCCCTGATGTTAATCGGGTCTTGATTCGCTTGACGCTGCTG reaches 5 z-score or more?
stdout: False

stdin: Could you tell me if the measured binding signal of CCGATTAACATCAAATGGGAATTTGATGTTAATCGGGTCTTGATTCGCTTGACGCTGCTG reaches 5 z-score or more?
stdout: False

stdin: Could you tell me if the measured binding signal of CCGATTAACATCAAATAATCCCCTGATGTTAATCGGGTCTTGATTCGCTTGACGCTGCTG reaches 5 z-score or more?
stdout: True

stdin: Could you tell me if the measured binding signal of CCGATTAACATCAGCAATCCCCCTGATGTTAATCGGGTCTTGATTCGCTTGACGCTGCTG reaches 5 z-score or more?
stdout: True

stdin: Could you tell me if the measured binding signal of CCGATTAACATCAAAAACCCCCGTGATGTTAATCGGGTCTTGATTCGCTTGACGCTGCTG reaches 5 z-score or more?
stdout: True

stdin: Could you tell me if the measured binding signal of CCGATTAACATCAAGCACCCCCTTGATGTTAATCGGGTCTTGATTCGCTTGACGCTGCTG reaches 5 z-score or more?
stdout: False

stdin: Could you tell me if the measured binding signal of CCGATTAACATCAGGGGGATAGATGATGTTAATCGGGTCTTGATTCGCTTGACGCTGCTG reaches 5 z-score or more?
stdout: False

stdin: Could you tell me if the measured binding signal of CCGATTAACATCAAGGGGTCCCCTGATGTTAATCGGGTCTTGATTCGCTTGACGCTGCTG reaches 5 z-score or more?
stdout: False
